Assay: Acute Toxicity in white mice after oral administration
Type: in vivo
Details: mouse, in vivo, single dose of 300 mg/kg, observation time 14 days
Procedure: The acute toxicity of the test compounds was determined in white mice after oral administration of a single dose of 300 mg/kg (observation time: 14 days).
Give measured LD50 at 336 h for each item. Keep answers brief.

Answer with the recorded LD50 at 336 h for the compound listed here: COc1ccc(-c2nc3ncncc3[nH]2)c(OCC[S+](C)[O-])c1 (stereo not drawn) [D]
> 300 mg/kg

Answer with the recorded LD50 at 336 h for the compound listed here: COc1cc(SC)ccc1-c1nc2ncncc2[nH]1 [B]
> 300 mg/kg

Answer with the recorded LD50 at 336 h for the compound listed here: COc1cc([S+](C)[O-])ccc1-c1nc2ncncc2[nH]1 (stereo not drawn) [H]
~300 mg/kg

Answer with the recorded LD50 at 336 h for the compound listed here: COc1ccc(-c2nc3ncncc3[nH]2)c(OC)c1 [A, 8-(2,4-Dimethoxy-phenyl)-purine]
> 300 mg/kg

Answer with the recorded LD50 at 336 h for the compound listed here: COc1cc(Cl)ccc1-c1nc2ncncc2[nH]1 [G, 8-(4-Chloro-2-methoxy-phenyl)-purine]
> 300 mg/kg

Answer with the recorded LD50 at 336 h for the compound listed here: COc1ccc(-c2nc3ncncc3[nH]2)c(OCCSC)c1 [C]
> 300 mg/kg

----------
system: white mice; experiment: Acute Toxicity in white mice after oral administration; assay type: in vivo; conditions: single dose of 300 mg/kg, observation time 14 days
endpoint_name: animals died

Answer with the recorded animals died for the molecule listed here: `COc1ccc(-c2nc3ncncc3[nH]2)c(OC)c1`
0 out of 6

Answer with the recorded animals died for the molecule listed here: COc1cc([S+](C)[O-])ccc1-c1nc2ncncc2[nH]1 (stereo not drawn)
3 out of 6

Answer with the recorded animals died for the molecule listed here: `COc1cc(SC)ccc1-c1nc2ncncc2[nH]1`
2 out of 6

Answer with the recorded animals died for the molecule listed here: `COc1ccc(-c2nc3ncncc3[nH]2)c(OCCSC)c1`
0 out of 6

Answer with the recorded animals died for the molecule listed here: COc1ccc(-c2nc3ncncc3[nH]2)c(OCC[S+](C)[O-])c1 (stereo not drawn)
0 out of 6

Answer with the recorded animals died for the molecule listed here: `COc1cc(Cl)ccc1-c1nc2ncncc2[nH]1`
1 out of 6
